# Test system: parent strain (SAWy518)
// boundary case: OffScreen_percentage equal to 100 percentage maps to false; strictly smaller maps to true

Prompt: Consider the compound CCC(C)n1ncn(-c2ccc(N3CCN(c4ccc(OCC5COC(Cn6cncn6)(c6ccc(Cl)cc6Cl)O5)cc4)CC3)cc2)c1=O (centres unmarked) . Is its OffScreen_percentage strictly less than 100 percentage?
Response: true

Prompt: Consider the compound CC/C(=C(\c1ccccc1)c1ccc(OCCN(C)C)cc1)c1ccccc1.O=C(O)CC(O)(CC(=O)O)C(=O)O [Tamoxifen Citrate] . Is its OffScreen_percentage strictly less than 100 percentage?
Response: true

Prompt: Consider the compound `CCOC(=O)Oc1c(OC)cc(C(=O)O[C@@H]2C[C@@H]3CN4CCc5c([nH]c6cc(OC)ccc56)[C@H]4C[C@@H]3[C@H](C(=O)OC)[C@H]2OC)cc1OC` . Is its OffScreen_percentage strictly less than 100 percentage?
Response: true

Prompt: Consider the compound CN1C(C(=O)Nc2ccccn2)=C(O)c2ccccc2S1(=O)=O [Piroxicam, reference compound] . Is its OffScreen_percentage strictly less than 100 percentage?
Response: true

Prompt: Consider the compound `NCCS(=O)(=O)O` . Is its OffScreen_percentage strictly less than 100 percentage?
Response: false

Prompt: Consider the compound CCN(CC)C(=O)C1(c2ccccc2)CC1CN (centres unmarked) . Is its OffScreen_percentage strictly less than 100 percentage?
Response: false

Prompt: Consider the compound C=CC(C1=CC(=O)C=CC1=O)c1ccccc1 (centres unmarked) . Is its OffScreen_percentage strictly less than 100 percentage?
Response: false

Prompt: Consider the compound `O=C(CCc1ccc(O)cc1)c1c(O)cc(O)cc1O` . Is its OffScreen_percentage strictly less than 100 percentage?
Response: true

Prompt: Consider the compound CC(C)(Oc1ccc(C2CC2(Cl)Cl)cc1)C(=O)O (centres unmarked) [Ciprofibrate] . Is its OffScreen_percentage strictly less than 100 percentage?
Response: true

Prompt: Consider the compound `Cc1cc(C(C)(C)CC(C)(C)C)ccc1OCCOCC[N+](C)(C)Cc1ccccc1` . Is its OffScreen_percentage strictly less than 100 percentage?
Response: true

Prompt: Consider the compound `Cc1ccccc1-c1cc(N2CCN(C)CC2)ncc1N(C)C(=O)C(C)(C)c1cc(C(F)(F)F)cc(C(F)(F)F)c1` . Is its OffScreen_percentage strictly less than 100 percentage?
Response: false

###

I'd appreciate it if you could supply Offscreen_18hr values for the items below.
Where a name gives a salt, the structure may show the parent alone.

Prompt: Provide the documented Offscreen_18hr with parent strain (SAWy518) as the system for `O=c1cc(O)cc(/C=C/c2ccc(O)c(O)c2)o1`
Response: 0.7832

Prompt: Provide the documented Offscreen_18hr with parent strain (SAWy518) as the system for `CC[C@@H](C(=O)[C@@H](C)[C@@H](O)[C@H](C)[C@@H]1O[C@@H]([C@@H](CC)C(=O)O)CC[C@@H]1C)[C@H]1O[C@]2(C=C[C@@H](O)[C@]3(CC[C@@](C)([C@H]4CC[C@](O)(CC)[C@H](C)O4)O3)O2)[C@H](C)C[C@@H]1C`
Response: 0.8013

Prompt: Provide the documented Offscreen_18hr with parent strain (SAWy518) as the system for `CCc1oc2ccccc2c1C(=O)c1cc(Br)c(O)c(Br)c1`
Response: 0.5194

Prompt: Provide the documented Offscreen_18hr with parent strain (SAWy518) as the system for COc1c(C)c2c(c(O)c1C/C=C(\C)CCC(=O)O)C(=O)OC2 [Mycophenolic (Mycophenolate)]
Response: 0.6524

Prompt: Provide the documented Offscreen_18hr with parent strain (SAWy518) as the system for O=C(/C=C/c1ccccc1)c1ccc(O)cc1 [4'-HYDROXYCHALCONE]
Response: 0.7341

Prompt: Provide the documented Offscreen_18hr with parent strain (SAWy518) as the system for `Oc1ccc(Nc2nc(-c3ccc(Cl)cc3)cs2)cc1`
Response: 0.4105

Prompt: Provide the documented Offscreen_18hr with parent strain (SAWy518) as the system for `Cc1ccccc1-c1cc(N2CCN(C)CC2)ncc1N(C)C(=O)C(C)(C)c1cc(C(F)(F)F)cc(C(F)(F)F)c1`
Response: 0.8334

Prompt: Provide the documented Offscreen_18hr with parent strain (SAWy518) as the system for `O=C(O)Cn1c(C(=O)Nc2nc(-c3ccccc3Cl)cs2)cc2ccccc21`
Response: 0.7947

Prompt: Provide the documented Offscreen_18hr with parent strain (SAWy518) as the system for `CC[N+](CC)(CC)CCOc1ccc(/C=C/c2ccccc2)cc1`
Response: 0.5585

Prompt: Provide the documented Offscreen_18hr with parent strain (SAWy518) as the system for CN(C/C=C/C#CC(C)(C)C)Cc1cccc2ccccc12 [Terbinafine hydrochloride]
Response: 0.3316

Prompt: Provide the documented Offscreen_18hr with parent strain (SAWy518) as the system for CCC(C)n1ncn(-c2ccc(N3CCN(c4ccc(OCC5COC(Cn6cncn6)(c6ccc(Cl)cc6Cl)O5)cc4)CC3)cc2)c1=O (stereo not drawn)
Response: 0.7339

Prompt: Provide the documented Offscreen_18hr with parent strain (SAWy518) as the system for COc1c(C)c2c(c(O)c1C/C=C(\C)CCC(=O)OCCN1CCOCC1)C(=O)OC2 [MYCOPHENOLATE MOFETIL]
Response: 0.5798

###

TEST_READOUT: Offscreen_24hr
Could you keep your reply to the number by itself?

Prompt: Provide the documented Offscreen_24hr with parent strain (SAWy518) as the system for CC(C)N(CCC(=O)c1ccc2ccccc2c1)Cc1ccccc1.Cl [ZM 39923 HCl]
Response: 0.0403

Prompt: Provide the documented Offscreen_24hr with parent strain (SAWy518) as the system for CCC[C@H](NC(=O)/C(C#N)=C/c1cccc(Br)n1)c1ccccc1 [WP1130]
Response: 0.8363

Prompt: Provide the documented Offscreen_24hr with parent strain (SAWy518) as the system for CC1=C(CC(=O)O)c2cc(F)ccc2/C1=C\c1ccc([S+](C)[O-])cc1 (stereo not drawn) [Sulindac, reference compound]
Response: 0.9131

Prompt: Provide the documented Offscreen_24hr with parent strain (SAWy518) as the system for C=CCc1ccc(O)c(-c2ccc(O)c(CC=C)c2)c1 [Honokiol]
Response: 0.875

Prompt: Provide the documented Offscreen_24hr with parent strain (SAWy518) as the system for O=C1c2ccccc2C(=O)c2c(O)c(O)cc(O)c21 [PURPURIN]
Response: 0.6741

Prompt: Provide the documented Offscreen_24hr with parent strain (SAWy518) as the system for Cc1ccc(S(=O)(=O)/C=C/C#N)cc1 [Bay 11-7082]
Response: 0.2743

Prompt: Provide the documented Offscreen_24hr with parent strain (SAWy518) as the system for COc1ccc(-c2coc3cc(OC(C)=O)cc(OC(C)=O)c3c2=O)cc1 [BIOCHANIN A DIACETATE]
Response: 0.8835

Prompt: Provide the documented Offscreen_24hr with parent strain (SAWy518) as the system for COc1ncc(-c2ccc3nccc(-c4ccnnc4)c3c2)cc1NS(=O)(=O)c1ccc(F)cc1F [GSK2126458 (GSK458)]
Response: 0.6688

Prompt: Provide the documented Offscreen_24hr with parent strain (SAWy518) as the system for CC(C)Cn1cnc2c(N)nc3ccccc3c21 [Imiquimod]
Response: 0.9119

###

# Test system: parent strain (SAWy518)
Rule: Offscreen_18hr under 0.8 gives 0 (no), otherwise 1 (yes).

Prompt: Can O=c1c(O)c(-c2ccc(O)c(O)c2)oc2cc(O)cc(O)c12 [Quercetin dihydrate] be said to have Offscreen_18hr at or above 0.8?
Response: 0 (no)

Prompt: Can COc1ccc(CCN(C)CCCOc2ccc(S(=O)(=O)c3c(C(C)C)c4ccccc4n3C)cc2)cc1OC.O=C(O)C(=O)O [SR-33805] be said to have Offscreen_18hr at or above 0.8?
Response: 0 (no)

Prompt: Can O=C1NC(=O)c2c1c(-c1ccccc1)cc1[nH]c3ccc(O)cc3c21 [PD-407824] be said to have Offscreen_18hr at or above 0.8?
Response: 0 (no)

Prompt: Can O=C(O)[C@]1(Cc2cccc(Nc3nccs3)n2)CC[C@@H](Oc2cccc(Cl)c2F)CC1 [MK-5108 (VX-689)] be said to have Offscreen_18hr at or above 0.8?
Response: 0 (no)

Prompt: Can CCN(CC)C(=O)[C@]1(c2ccccc2)C[C@@H]1CN.Cl [Milnacipran hydrochloride] be said to have Offscreen_18hr at or above 0.8?
Response: 1 (yes)

###

I'd appreciate it if you could supply Offscreen_42hr values for the items below.

Prompt: Provide the documented Offscreen_42hr with parent strain (SAWy518) as the system for `N#Cc1ccc(Oc2ccc3c(c2)COB3O)cc1`
Response: 0.9431

Prompt: Provide the documented Offscreen_42hr with parent strain (SAWy518) as the system for `O=[N+]([O-])/C=C/c1ccc2c(c1)OCO2`
Response: 0.9062

Prompt: Provide the documented Offscreen_42hr with parent strain (SAWy518) as the system for CC[C@@H](C(=O)[C@@H](C)[C@@H](O)[C@H](C)[C@@H]1O[C@@H]([C@@H](CC)C(=O)[O-])CC[C@@H]1C)[C@H]1OC2(C=C[C@@H](O)[C@]3(CC[C@@](C)([C@H]4CC[C@](O)(CC)[C@H](C)O4)O3)O2)[C@H](C)C[C@@H]1C.[Na+] (stereo partly drawn) [SALINOMYCIN, SODIUM]
Response: 0.8421

Prompt: Provide the documented Offscreen_42hr with parent strain (SAWy518) as the system for CCC(C)n1ncn(-c2ccc(N3CCN(c4ccc(OC[C@H]5CO[C@](Cn6cncn6)(c6ccc(Cl)cc6Cl)O5)cc4)CC3)cc2)c1=O.Cl.Cl (stereo partly drawn) [ITRACONAZOLE HYDROCHLORIDE]
Response: 0.9404

Prompt: Provide the documented Offscreen_42hr with parent strain (SAWy518) as the system for `COc1cc(C)c2c(=O)c(-c3ccccc3)coc2c1`
Response: 0.9442

Prompt: Provide the documented Offscreen_42hr with parent strain (SAWy518) as the system for CCN(CC)CCNC(=O)c1c(C)[nH]c(/C=C2\C(=O)Nc3ccc(F)cc32)c1C.O=C(O)C[C@H](O)C(=O)O [Sunitinib Malate]
Response: 0.9606

Prompt: Provide the documented Offscreen_42hr with parent strain (SAWy518) as the system for `CCCc1c(-c2ccc(O)cc2)nn(-c2ccc(O)cc2)c1-c1ccc(O)cc1`
Response: 0.9515

Prompt: Provide the documented Offscreen_42hr with parent strain (SAWy518) as the system for N.S=C(S)N1CCCC1 [Ammonium pyrrolidinedithiocarbamate]
Response: 0.942

Prompt: Provide the documented Offscreen_42hr with parent strain (SAWy518) as the system for `O=C1c2ccccc2C(=O)c2c(O)c(O)cc(O)c21`
Response: 0.7778

Prompt: Provide the documented Offscreen_42hr with parent strain (SAWy518) as the system for O=C(/C=C/c1ccc(O)cc1)c1ccccc1 [4-hydroxychalcone, reference compound]
Response: 0.9804

Prompt: Provide the documented Offscreen_42hr with parent strain (SAWy518) as the system for CCC(Cc1c(I)cc(I)c(N)c1I)C(=O)O (stereo not drawn)
Response: 0.8261

Prompt: Provide the documented Offscreen_42hr with parent strain (SAWy518) as the system for `CC[C@H](c1ccc(O)cc1)[C@@H](CC)c1ccc(O)cc1`
Response: 0.9595

Prompt: Provide the documented Offscreen_42hr with parent strain (SAWy518) as the system for `CC[C@H](C(=O)[C@H](C)[C@@H](O)[C@@H](C)[C@@H]1O[C@@H]([C@@H](CC)C(=O)O)CC[C@H]1C)[C@H]1O[C@]2(C=C[C@@H](O)[C@]3(CC[C@@](C)([C@H]4CC[C@](O)(CC)[C@H](C)O4)O3)O2)[C@H](C)C[C@H]1C`
Response: 0.9461

Prompt: Provide the documented Offscreen_42hr with parent strain (SAWy518) as the system for O=C(/C=C/c1ccc(O)c(O)c1)OCCc1ccccc1 [PHENETHYL CAFFEATE (CAPE)]
Response: 0.8223

Prompt: Provide the documented Offscreen_42hr with parent strain (SAWy518) as the system for `COc1ccc([C@@H](C)C(=O)c2ccc(O)cc2O)cc1`
Response: 0.9388

The values you see were collected from paper PMC11637378.
